# subject of test: SRC Catalytic Domain+SH2+SH3 (Homo sapiens, UniProt P12931)
# Sequence (P12931 84-523 limits assumed): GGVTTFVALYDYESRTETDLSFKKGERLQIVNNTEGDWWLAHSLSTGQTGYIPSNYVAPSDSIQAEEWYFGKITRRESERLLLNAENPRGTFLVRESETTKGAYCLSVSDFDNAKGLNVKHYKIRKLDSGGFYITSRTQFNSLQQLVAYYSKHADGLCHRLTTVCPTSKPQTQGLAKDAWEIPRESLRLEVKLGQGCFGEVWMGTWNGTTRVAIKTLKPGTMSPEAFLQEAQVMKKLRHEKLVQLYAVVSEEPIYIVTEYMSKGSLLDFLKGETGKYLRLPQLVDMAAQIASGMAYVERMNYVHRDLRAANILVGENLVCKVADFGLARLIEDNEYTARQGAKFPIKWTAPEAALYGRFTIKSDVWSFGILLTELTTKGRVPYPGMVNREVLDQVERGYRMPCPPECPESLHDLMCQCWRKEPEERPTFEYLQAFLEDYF
# assay comment: Differential Scanning Fluorimetry (DSF) Tm shift
# Assay type: binding
# run parameters: 2 µM protein, 10 µM inhibitor, average of 3 experiments, each in duplicate
Melting temperature (Tm) shift below 0.1 degrees Celcius gives FALSE; Melting temperature (Tm) shift at or above it gives TRUE.

Evaluate CCn1cnc2c(Nc3cccc(Cl)c3)nc(N[C@H]3CCCC[C@H]3N)nc21 [Cdk1 Inhibitor, CGP74514A] : Melting temperature (Tm) shift at minimum 0.1 degrees Celcius?
TRUE

Evaluate O=C(Nc1cccc(Nc2nccc(Nc3cccc(C(F)(F)F)c3)n2)c1)C1CC1 : Melting temperature (Tm) shift at minimum 0.1 degrees Celcius?
FALSE

Evaluate Cc1[nH]c(/C=C2\C(=O)Nc3ccc(S(=O)(=O)N(C)c4cccc(Cl)c4)cc32)c(C)c1C(=O)N1CCN(C)CC1 : Melting temperature (Tm) shift at minimum 0.1 degrees Celcius?
TRUE

Evaluate Brc1c(Br)c(Br)c2n[nH]nc2c1Br : Melting temperature (Tm) shift at minimum 0.1 degrees Celcius?
TRUE

Evaluate CCCCc1c(-c2ccc(O)cc2)[nH]c2nccnc12 : Melting temperature (Tm) shift at minimum 0.1 degrees Celcius?
TRUE

Evaluate O=C1Nc2ccccc2C1=C1Nc2ccccc2C1=NOCCC(O)CO (centres unmarked) : Melting temperature (Tm) shift at minimum 0.1 degrees Celcius?
TRUE

Evaluate CS(=O)(=O)O.Cn1cc(C2=C(c3cn(CCCSC(=N)N)c4ccccc34)C(=O)NC2=O)c2ccccc21 : Melting temperature (Tm) shift at minimum 0.1 degrees Celcius?
FALSE

----------
# subject of test: SRC Catalytic Domain (Homo sapiens, UniProt P12931)
# Sequence (P12931 270-523 limits assumed): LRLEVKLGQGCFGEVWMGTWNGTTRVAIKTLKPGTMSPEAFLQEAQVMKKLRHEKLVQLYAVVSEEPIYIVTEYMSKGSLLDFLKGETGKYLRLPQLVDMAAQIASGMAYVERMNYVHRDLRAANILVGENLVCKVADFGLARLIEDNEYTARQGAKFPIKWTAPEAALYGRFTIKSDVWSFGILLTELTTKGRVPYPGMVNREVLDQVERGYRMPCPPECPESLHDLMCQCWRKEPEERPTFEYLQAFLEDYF
# assay comment: Differential Scanning Fluorimetry (DSF) Tm shift
# Assay type: binding
# Set-up: For all of them, we expressed and purified the catalytic domain separately; His-tag; made in house; host or cells: Escherichia coli
# run parameters: 2 µM protein, 10 µM inhibitor, average of 3 experiments, each in duplicate
attribute measured: Melting temperature (Tm) shift (degrees Celcius)
Number in degrees Celcius, nothing else.

Log: SRC Catalytic Domain (Homo sapiens, UniProt P12931), compound O=C1Cc2c([nH]c3ccc([N+](=O)[O-])cc23)-c2ccccc2N1 , Melting temperature (Tm) shift = 0.0

Log: SRC Catalytic Domain (Homo sapiens, UniProt P12931), compound NC(=O)Nc1sc(-c2ccc(F)cc2)cc1C(N)=O , Melting temperature (Tm) shift = 1.2

Log: SRC Catalytic Domain (Homo sapiens, UniProt P12931), compound c1nc2nc(Nc3ccc(N4CCOCC4)cc3)nc(NC3CCCCC3)c2[nH]1 , Melting temperature (Tm) shift = 3.1

Log: SRC Catalytic Domain (Homo sapiens, UniProt P12931), compound COc1ccc2c(c1)c(C1=C(c3c[nH]c4ccccc34)C(=O)NC1=O)cn2CCCN(C)C , Melting temperature (Tm) shift = 0.2

Log: SRC Catalytic Domain (Homo sapiens, UniProt P12931), compound Nc1ncnc2c1c(-c1ccc(Oc3ccccc3)cc1)cn2C1CCCC1 , Melting temperature (Tm) shift = 9.4

Log: SRC Catalytic Domain (Homo sapiens, UniProt P12931), compound Cc1cc(Nc2nc(-c3ccccc3)nc3ccccc23)n[nH]1 , Melting temperature (Tm) shift = 1.3

Log: SRC Catalytic Domain (Homo sapiens, UniProt P12931), compound Cc1nc(N)sc1-c1ccnc(Nc2cccc([N+](=O)[O-])c2)n1 , Melting temperature (Tm) shift = 0.5

Log: SRC Catalytic Domain (Homo sapiens, UniProt P12931), compound COc1cc(Nc2ncc3ccn(-c4cccc(CCC#N)c4)c3n2)cc(OC)c1OC , Melting temperature (Tm) shift = 3.0

----------
Answer each item with its documented Melting temperature (Tm) shift.
# subject of test: CHK2 Catalytic Domain (Homo sapiens, UniProt O96017)
# Construct: For all of them, we expressed and purified the catalytic domain separately; His-tag; made in house; host or cells: Escherichia coli
# Sequence (O96017 220-486 limits assumed): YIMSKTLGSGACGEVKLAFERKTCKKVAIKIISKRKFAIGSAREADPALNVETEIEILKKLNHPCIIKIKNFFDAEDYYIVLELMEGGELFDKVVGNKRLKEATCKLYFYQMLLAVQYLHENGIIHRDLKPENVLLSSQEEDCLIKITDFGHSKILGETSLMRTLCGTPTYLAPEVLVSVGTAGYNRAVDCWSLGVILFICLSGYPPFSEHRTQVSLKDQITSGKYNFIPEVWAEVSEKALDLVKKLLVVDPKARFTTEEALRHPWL
# assay comment: Differential Scanning Fluorimetry (DSF) Tm shift
# Format: binding
# run parameters: 2 µM protein, 10 µM inhibitor, average of 3 experiments, each in duplicate
Number in degrees Celcius, nothing else.

Melting temperature (Tm) shift in this record for O=C1NC(=O)c2c1c1c3ccccc3n3c1c1c2c2ccccc2n1C1CCC3O1 : 24.9

Melting temperature (Tm) shift in this record for COc1cc2ncnc(Nc3ccc(Cl)cc3Cl)c2cc1OC : 10.6

Melting temperature (Tm) shift in this record for O=C1NC(=O)C(=Cc2ccc3c(c2)OCO3)S1 : 0.1

Melting temperature (Tm) shift in this record for NC(=O)Nc1sc(-c2ccccc2)cc1C(N)=O : 3.6

Melting temperature (Tm) shift in this record for CN[C@@H]1C[C@H]2O[C@@](C)([C@@H]1OC)n1c3ccccc3c3c4c(c5c6ccccc6n2c5c31)C(=O)N[C@@H]4O : 1.7

Melting temperature (Tm) shift in this record for O=C1Nc2ccc3ncsc3c2/C1=C/c1cnc[nH]1 : 4.0

Melting temperature (Tm) shift in this record for COc1cc2ncnc(Nc3ccc(Oc4ccccc4)cc3)c2cc1OC : 3.0

Melting temperature (Tm) shift in this record for COc1cc2ncnc(Nc3ccc(NC(=O)c4ccccc4)cc3)c2cc1OC : 7.0

Melting temperature (Tm) shift in this record for Nc1ncnc2c1c(-c1ccc(Oc3ccccc3)cc1)cn2C1CCCC1 : 2.2

Melting temperature (Tm) shift in this record for CC#CC(=O)Nc1cc2c(Nc3ccc(F)c(Cl)c3)ncnc2cn1 : 0.3

Melting temperature (Tm) shift in this record for Cc1[nH]c(/C=C2\C(=O)Nc3ccc(S(=O)(=O)N(C)c4cccc(Cl)c4)cc32)c(C)c1C(=O)N1CCN(C)CC1 : 1.2

Melting temperature (Tm) shift in this record for O=C1Cc2c([nH]c3ccc([N+](=O)[O-])cc23)-c2ccccc2N1 : 0.9

----------
# subject of test: STK3 Catalytic domain+SARAH (Homo sapiens, UniProt Q13188)
# Construct: for 8, we also made a longer version containing one or more additional domains; His-tag; made in house; host or cells: Escherichia coli
# Sequence (Q13188 whole entry, the tested form may be a part): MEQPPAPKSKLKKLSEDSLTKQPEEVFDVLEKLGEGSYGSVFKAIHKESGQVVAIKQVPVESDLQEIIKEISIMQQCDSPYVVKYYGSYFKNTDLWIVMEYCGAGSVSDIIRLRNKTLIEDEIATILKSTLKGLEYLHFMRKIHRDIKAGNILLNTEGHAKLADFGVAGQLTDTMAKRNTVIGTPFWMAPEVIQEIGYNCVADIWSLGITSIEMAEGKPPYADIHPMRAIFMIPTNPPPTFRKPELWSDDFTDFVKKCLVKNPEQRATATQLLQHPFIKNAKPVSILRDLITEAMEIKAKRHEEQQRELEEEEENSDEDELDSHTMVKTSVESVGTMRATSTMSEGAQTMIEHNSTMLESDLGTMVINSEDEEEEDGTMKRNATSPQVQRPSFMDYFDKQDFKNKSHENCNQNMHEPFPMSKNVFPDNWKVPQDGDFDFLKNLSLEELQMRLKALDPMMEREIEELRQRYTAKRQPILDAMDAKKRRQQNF
# assay comment: Differential Scanning Fluorimetry (DSF) Tm shift
# Assay type: binding
# run parameters: 2 µM protein, 10 µM inhibitor, average of 3 experiments, each in duplicate
attribute measured: Melting temperature (Tm) shift (degrees Celcius)
Number in degrees Celcius, nothing else.

Melting temperature (Tm) shift in this record for Cc1nc(N)sc1-c1ccnc(Nc2cccc([N+](=O)[O-])c2)n1 : 0.4

Melting temperature (Tm) shift in this record for O.O=C1NCCc2[nH]c(-c3ccnc(-c4cnc5ccccc5c4)c3)cc21 : 0.4

Melting temperature (Tm) shift in this record for COc1cc2ncnc(Nc3ccc(Oc4ccccc4)cc3)c2cc1OC : 0.1

Melting temperature (Tm) shift in this record for Nc1ncnc2c1c(I)cn2[C@@H]1O[C@H](CO)[C@@H](O)[C@H]1O : 1.5

Melting temperature (Tm) shift in this record for N#Cc1cnc2cnc(NCc3cccnc3)cc2c1Nc1ccc(F)c(Cl)c1 : 0.4

Melting temperature (Tm) shift in this record for Cl.Cl.NCCNc1ncc(C(N)=O)c(Nc2cccc(C(F)(F)F)c2)n1 : 1.3

Melting temperature (Tm) shift in this record for CCCC(=O)Oc1ccc2[nH]c(C(=O)c3cc4ccccc4[nH]3)cc2c1 : 1.2

Melting temperature (Tm) shift in this record for O=C1NC(=O)c2c1c1c3ccccc3n3c1c1c2c2ccccc2n1C1CCC3O1 : 0.6

----------
# subject of test: STK3 Catalytic Domain (Homo sapiens)
# Construct: For all of them, we expressed and purified the catalytic domain separately; His-tag; made in house; host or cells: Escherichia coli
# Sequence (Q13188 27-278 limits assumed): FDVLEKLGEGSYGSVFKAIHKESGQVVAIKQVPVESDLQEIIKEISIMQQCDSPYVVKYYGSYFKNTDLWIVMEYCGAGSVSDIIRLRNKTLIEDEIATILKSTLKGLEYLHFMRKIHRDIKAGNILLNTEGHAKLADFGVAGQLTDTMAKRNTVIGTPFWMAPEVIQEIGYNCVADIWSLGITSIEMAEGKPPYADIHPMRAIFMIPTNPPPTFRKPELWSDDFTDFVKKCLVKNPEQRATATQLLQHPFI
# assay comment: Differential Scanning Fluorimetry (DSF) Tm shift
# Type: binding
# run parameters: 2 µM protein, 10 µM inhibitor, average of 3 experiments, each in duplicate
Melting temperature (Tm) shift below 0.7 degrees Celcius gives no (0); Melting temperature (Tm) shift at or above it gives yes (1).

Evaluate CC(C)[C@H](CO)Nc1nc(Nc2cccc(Cl)c2)c2ncn(C(C)C)c2n1 [Purvalanol A] : Melting temperature (Tm) shift at minimum 0.7 degrees Celcius?
yes (1)

Evaluate c1nc2nc(Nc3ccc(N4CCOCC4)cc3)nc(NC3CCCCC3)c2[nH]1 [Reversine] : Melting temperature (Tm) shift at minimum 0.7 degrees Celcius?
yes (1)

Evaluate CCCCc1c(-c2ccc(O)cc2)[nH]c2nccnc12 [Aloisine A, RP107, Aloisine A] : Melting temperature (Tm) shift at minimum 0.7 degrees Celcius?
yes (1)

Evaluate O=C1Cc2c([nH]c3ccc([N+](=O)[O-])cc23)-c2ccccc2N1 [Alsterpaullone] : Melting temperature (Tm) shift at minimum 0.7 degrees Celcius?
no (0)

Evaluate CC(C)(C)c1nc2c3cc[nH]c(=O)c3c3cc(F)ccc3c2[nH]1 [JAK Inhibitor I] : Melting temperature (Tm) shift at minimum 0.7 degrees Celcius?
yes (1)

Evaluate O=C1Nc2ccc(Cl)cc2C1=Cc1cc(Cl)c(O)c(Cl)c1 [PKR Inhibitor, Negative Control] : Melting temperature (Tm) shift at minimum 0.7 degrees Celcius?
yes (1)

Evaluate CC[C@@H](CO)Nc1nc(NCc2ccccc2)c2ncn(C(C)C)c2n1 (single isomer, unassigned) [Roscovitine, (S)-Isomer] : Melting temperature (Tm) shift at minimum 0.7 degrees Celcius?
no (0)

Evaluate COc1cc2ncnc(Nc3ccc(NC(=O)c4ccccc4)cc3)c2cc1OC [Aurora Kinase Inhibitor II] : Melting temperature (Tm) shift at minimum 0.7 degrees Celcius?
yes (1)

Evaluate CCN1/C(=C/C(C)=O)Sc2ccc(OC)cc21 [Cdc2-Like Kinase Inhibitor, TG003] : Melting temperature (Tm) shift at minimum 0.7 degrees Celcius?
no (0)

Evaluate COc1ccc2c(c1)c(C1=C(c3c[nH]c4ccccc34)C(=O)NC1=O)cn2CCCN(C)C [Gö 6983] : Melting temperature (Tm) shift at minimum 0.7 degrees Celcius?
no (0)

Evaluate COc1ccc2c(c1)c1c3c(c4c5ccccc5n(C)c4c1n2CC(O)CN(C)C)C(=O)NC3=O.Cl (stereo not shown) [Gö 7874, Hydrochloride] : Melting temperature (Tm) shift at minimum 0.7 degrees Celcius?
yes (1)

Evaluate c1cc(-c2cnn3cc(-c4ccc(OCCN5CCCCC5)cc4)cnc23)ccn1 [AMPK Inhibitor, Compound C] : Melting temperature (Tm) shift at minimum 0.7 degrees Celcius?
no (0)

Evaluate Cl.NCCCn1cc(C2=C(c3c[nH]c4ccccc34)C(=O)NC2=O)c2ccccc21 [Bisindolylmaleimide III, Hydrochloride] : Melting temperature (Tm) shift at minimum 0.7 degrees Celcius?
yes (1)

Evaluate Nc1ncnc2c1c(-c1ccc(Oc3ccccc3)cc1)cn2C1CCCC1 [Lck Inhibitor] : Melting temperature (Tm) shift at minimum 0.7 degrees Celcius?
yes (1)
